List of IC50 tested on Human PDE10A1 (Homo sapiens).
Sequence (Q9Y233 1-779 isoform Q9Y233-1): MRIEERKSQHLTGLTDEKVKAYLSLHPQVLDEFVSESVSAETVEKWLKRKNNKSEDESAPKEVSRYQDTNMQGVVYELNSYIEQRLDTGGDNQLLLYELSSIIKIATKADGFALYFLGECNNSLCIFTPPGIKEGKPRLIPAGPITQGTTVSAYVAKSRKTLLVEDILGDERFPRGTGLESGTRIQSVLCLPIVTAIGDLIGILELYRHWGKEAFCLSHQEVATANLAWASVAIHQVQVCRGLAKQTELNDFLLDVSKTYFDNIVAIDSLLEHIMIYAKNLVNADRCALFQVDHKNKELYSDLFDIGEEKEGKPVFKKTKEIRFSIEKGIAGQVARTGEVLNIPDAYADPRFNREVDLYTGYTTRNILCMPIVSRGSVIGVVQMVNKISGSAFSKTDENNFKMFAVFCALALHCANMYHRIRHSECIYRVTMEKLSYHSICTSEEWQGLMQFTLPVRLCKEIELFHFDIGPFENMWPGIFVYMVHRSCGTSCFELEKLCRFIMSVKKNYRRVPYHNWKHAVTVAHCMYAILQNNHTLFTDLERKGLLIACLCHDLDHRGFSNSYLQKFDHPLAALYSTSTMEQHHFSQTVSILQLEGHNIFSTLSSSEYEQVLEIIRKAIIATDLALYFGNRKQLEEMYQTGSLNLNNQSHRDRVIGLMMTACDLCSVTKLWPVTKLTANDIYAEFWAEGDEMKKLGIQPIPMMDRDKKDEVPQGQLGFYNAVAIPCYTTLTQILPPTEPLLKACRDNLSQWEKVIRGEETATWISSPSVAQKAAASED

A selection of reference data follows.
{"columns": ["Structure smiles", "IC50"],
 "data": [
  ["COc1ccc(C2=C(c3ccc(OCc4cn5c(C)cccc5n4)cc3)C(=O)C(C)(C)O2)cc1", "≤ 10 nM"],
  ["CC1(C)OC(c2ccc(C#N)cc2)=C(c2ccc(OCc3cn4ccccc4n3)cc2)C1=O", "≤ 10 nM"],
  ["COc1ccc(C2=C(c3ccc(OCc4cn5nc(Cl)ccc5n4)cc3)C(=O)C(C)(C)O2)cc1", "10 to 50 nM"],
  ["COc1ccc(C2=C(c3ccc(OCc4cn5ccccc5n4)cc3)C(=O)C(C)(C)O2)cc1", "≤ 10 nM"]
]}

Proceed to the following item.
State recorded IC50 with Human PDE10A1 (Homo sapiens), entry COc1ccc(C2=C(c3ccc(OCc4nc5ccccn5c4Cl)cc3)C(=O)C(C)(C)O2)cc1 , no comment.
≤ 10 nM
